The reported numbers originate from ChEMBL document CHEMBL1667751.

Provide the recorded zone of inhibition at 50 µg/mL for the entries that follow.
- Test system: Staphylococcus aureus
- ASSAY_NOTES: Antibacterial activity against Staphylococcus aureus at 50 ug/ml after 24 hrs agar diffusion method
- Assay type: functional
- TEST_PARAMETERS: read-out: DIZ
Give me the value, and tack the unit on after it.

Use these answered entries as a reference point.
{"COMPOUND": "CCOC(=O)[C@@H]1[C@@H]([C@H]2[C@@H](c3ccccc3)C(=O)N2c2ccc(OC)cc2)CN(C)[C@@]12C(=O)c1cccc3cccc2c13", "REPORTED_MEASUREMENT": "10 mm"}
{"COMPOUND": "CCOC(=O)[C@@H]1[C@@H]([C@H]2[C@@H](Oc3ccccc3)C(=O)N2c2ccc(OC)cc2)CN(C)[C@@]12C(=O)c1cccc3cccc2c13", "REPORTED_MEASUREMENT": "9 mm"}

Exercise: Look at this compound and give its reported zone of inhibition at 50 µg/mL. CCOC(=O)[C@@H]1[C@@H]([C@H]2[C@@H](c3ccccc3)C(=O)N2c2ccc(OC)cc2)C2CCCN2[C@]12C(=O)Nc1ccccc12 (stereo partly drawn)
Key: 16 mm

---

- Tested on: Staphylococcus aureus
- ASSAY_NOTES: Antibacterial activity against Staphylococcus aureus at 100 ug/ml after 24 hrs agar diffusion method
- Type: functional
- TEST_PARAMETERS: read-out: DIZ
EXPERIMENTAL_READOUT: zone of inhibition at 100 µg/mL (mm)
Answers are plain numbers, in mm.

# per-item lookup of zone of inhibition at 100 µg/mL; items listed below
1. CCOC(=O)[C@@H]1[C@@H]([C@H]2[C@@H](c3ccccc3)C(=O)N2c2ccc(OC)cc2)CN(C)C12C(=O)c1ccccc1C2=O
2. CCOC(=O)[C@@H]1[C@@H]([C@H]2[C@@H](Oc3ccccc3)C(=O)N2c2ccc(OC)cc2)C2CCCN2C12C(=O)c1ccccc1C2=O (stereo partly drawn)
3. CCOC(=O)[C@@H]1[C@@H]([C@H]2[C@@H](Oc3ccccc3)C(=O)N2c2ccc(OC)cc2)C2CCCN2[C@]12C(=O)Nc1ccccc12 (stereo partly drawn)

Key:
22
24
34

---

- Test system: Proteus mirabilis
- ASSAY_NOTES: Antibacterial activity against Proteus mirabilis at 25 ug/ml after 24 hrs agar diffusion method
- Type: functional
- TEST_PARAMETERS: read-out: DIZ
EXPERIMENTAL_READOUT: zone of inhibition at 25 µg/mL (mm)
Give bare numbers, in mm.

{"MOLECULE": "CCOC(=O)[C@@H]1[C@@H]([C@H]2[C@@H](Oc3ccccc3)C(=O)N2c2ccc(OC)cc2)CN(C)[C@]12C(=O)Nc1ccccc12", "REPORTED_MEASUREMENT": 12}
{"MOLECULE": "CCOC(=O)[C@@H]1[C@@H]([C@H]2[C@@H](c3ccccc3)C(=O)N2c2ccc(OC)cc2)CN(C)C12C(=O)c1ccccc1C2=O", "REPORTED_MEASUREMENT": 11}
{"MOLECULE": "CCOC(=O)[C@@H]1[C@@H]([C@H]2[C@@H](c3ccccc3)C(=O)N2c2ccc(OC)cc2)C2CCCN2C12C(=O)c1ccccc1C2=O (stereo partly specified)", "REPORTED_MEASUREMENT": 10}
{"MOLECULE": "CCOC(=O)[C@@H]1[C@@H]([C@H]2[C@@H](Oc3ccccc3)C(=O)N2c2ccc(OC)cc2)C2CCCN2[C@@]12C(=O)c1cccc3cccc2c13 (stereo partly specified)", "REPORTED_MEASUREMENT": 10}

# per-item lookup of zone of inhibition at 25 µg/mL; items listed below
1. CCOC(=O)[C@@H]1[C@@H]([C@H]2[C@@H](c3ccccc3)C(=O)N2c2ccc(OC)cc2)C2CCCN2[C@@]12C(=O)c1cccc3cccc2c13 (stereo partly specified)
2. CN(C)[C@@H]1C(O)=C(C(N)=O)C(=O)[C@@]2(O)C(O)=C3C(=O)c4c(O)cccc4[C@@](C)(O)[C@H]3C[C@@H]12

Key:
1: 9; 2: 18

---

- Test system: Staphylococcus aureus
- ASSAY_NOTES: Antibacterial activity against Staphylococcus aureus at 100 ug/ml after 24 hrs agar diffusion method
- Format: functional
- TEST_PARAMETERS: read-out: DIZ
EXPERIMENTAL_READOUT: zone of inhibition at 100 µg/mL (mm)
Answers are plain numbers, in mm.

Use these answered entries as a reference point.
{"COMPOUND": "CCOC(=O)[C@@H]1[C@@H]([C@H]2[C@@H](c3ccccc3)C(=O)N2c2ccc(OC)cc2)C2CCCN2[C@@]12C(=O)c1cccc3cccc2c13 (stereo not given in full)", "TEST_SYSTEM": "Staphylococcus aureus", "UNIT_ANNOTATION": "mm", "REPORTED_MEASUREMENT": 21}
{"COMPOUND": "CCOC(=O)[C@@H]1[C@@H]([C@H]2[C@@H](Oc3ccccc3)C(=O)N2c2ccc(OC)cc2)CN(C)[C@]12C(=O)Nc1ccccc12", "TEST_SYSTEM": "Staphylococcus aureus", "UNIT_ANNOTATION": "mm", "REPORTED_MEASUREMENT": 26}
{"COMPOUND": "CCOC(=O)[C@@H]1[C@@H]([C@H]2[C@@H](Oc3ccccc3)C(=O)N2c2ccc(OC)cc2)CN(C)C12C(=O)c1ccccc1C2=O", "TEST_SYSTEM": "Staphylococcus aureus", "UNIT_ANNOTATION": "mm", "REPORTED_MEASUREMENT": 18}
{"COMPOUND": "CCOC(=O)[C@@H]1[C@@H]([C@H]2[C@@H](Oc3ccccc3)C(=O)N2c2ccc(OC)cc2)C2CCCN2[C@@]12C(=O)c1cccc3cccc2c13 (stereo not given in full)", "TEST_SYSTEM": "Staphylococcus aureus", "UNIT_ANNOTATION": "mm", "REPORTED_MEASUREMENT": 18}

# per-item lookup of zone of inhibition at 100 µg/mL; items listed below
1. CCOC(=O)[C@@H]1[C@@H]([C@H]2[C@@H](c3ccccc3)C(=O)N2c2ccc(OC)cc2)C2CCCN2C12C(=O)c1ccccc1C2=O (stereo not given in full)
2. CCOC(=O)[C@@H]1[C@@H]([C@H]2[C@@H](c3ccccc3)C(=O)N2c2ccc(OC)cc2)CN(C)[C@]12C(=O)Nc1ccccc12
3. CCOC(=O)[C@@H]1[C@@H]([C@H]2[C@@H](c3ccccc3)C(=O)N2c2ccc(OC)cc2)C2CCCN2[C@]12C(=O)Nc1ccccc12 (stereo not given in full)
4. CCOC(=O)[C@@H]1[C@@H]([C@H]2[C@@H](Oc3ccccc3)C(=O)N2c2ccc(OC)cc2)CN(C)[C@@]12C(=O)c1cccc3cccc2c13

Key:
[28, 27, 31, 19]

Exercise: Look at this compound and give its reported zone of inhibition at 100 µg/mL. `CCOC(=O)[C@@H]1[C@@H]([C@H]2[C@@H](c3ccccc3)C(=O)N2c2ccc(OC)cc2)CN(C)[C@@]12C(=O)c1cccc3cccc2c13`
Key: 21

---

- System: Salmonella typhi
- ASSAY_NOTES: Antibacterial activity against Salmonella typhi at 100 ug/ml after 24 hrs agar diffusion method
- Type: functional, Salmonella enterica subsp. enterica serovar Typhi
- TEST_PARAMETERS: Salmonella enterica, read-out: DIZ
Label scheme for zone of inhibition at 100 µg/mL: lower than 20 mm is Not fulfilled, 20 mm and above is Fulfilled.

{"MOLECULE": "CCOC(=O)[C@@H]1[C@@H]([C@H]2[C@@H](c3ccccc3)C(=O)N2c2ccc(OC)cc2)CN(C)C12C(=O)c1ccccc1C2=O", "CLASS_NAME": "Not fulfilled"}
{"MOLECULE": "CCOC(=O)[C@@H]1[C@@H]([C@H]2[C@@H](Oc3ccccc3)C(=O)N2c2ccc(OC)cc2)CN(C)[C@]12C(=O)Nc1ccccc12", "CLASS_NAME": "Fulfilled"}
{"MOLECULE": "CCOC(=O)[C@@H]1[C@@H]([C@H]2[C@@H](Oc3ccccc3)C(=O)N2c2ccc(OC)cc2)CN(C)C12C(=O)c1ccccc1C2=O", "CLASS_NAME": "Not fulfilled"}
{"MOLECULE": "CCOC(=O)[C@@H]1[C@@H]([C@H]2[C@@H](Oc3ccccc3)C(=O)N2c2ccc(OC)cc2)C2CCCN2C12C(=O)c1ccccc1C2=O (stereo partly specified)", "CLASS_NAME": "Fulfilled"}
{"MOLECULE": "CN(C)[C@@H]1C(O)=C(C(N)=O)C(=O)[C@@]2(O)C(O)=C3C(=O)c4c(O)cccc4[C@@](C)(O)[C@H]3C[C@@H]12", "CLASS_NAME": "Fulfilled"}

Exercise: Evaluate CCOC(=O)[C@@H]1[C@@H]([C@H]2[C@@H](Oc3ccccc3)C(=O)N2c2ccc(OC)cc2)C2CCCN2[C@]12C(=O)Nc1ccccc12 (stereo partly specified) : zone of inhibition at 100 µg/mL at minimum 20 mm?
Key: Fulfilled

Exercise: Evaluate `CCOC(=O)[C@@H]1[C@@H]([C@H]2[C@@H](c3ccccc3)C(=O)N2c2ccc(OC)cc2)CN(C)[C@]12C(=O)Nc1ccccc12` : zone of inhibition at 100 µg/mL at minimum 20 mm?
Key: Fulfilled
